test: NCI Yeast Anticancer Drug Screen. Data for the mec2-1 strain (AID 157); settings: S. cerevisiae mec2-1 strain, at 50.0 µM, hits give high values
Compounds without any hit were thinned out: in the full panel of roughly 79,000, 15% have a hit.
recordedEndpoint: growth inhibition (%)
Write down the numeric answer in % and omit the unit.

Study these solved cases before continuing.
CC(=O)Nc1cc2c3c(c1)CCCN3CCC2 = -14.8
NC(=S)N/N=C\c1nccc2ccsc12 = -5.7
COc1c(NC(=O)c2ccc(Cl)c(Cl)c2)cccc1[N+](=O)[O-] = -9.1
COc1cc(CCl)cc(OC)c1OC = -12

query: Entry "CCOC(=O)C(C)(Cc1cccc2ccccc12)C(=O)OCC" has what growth inhibition?
result: -19.3

query: Entry "CC(=O)NS(=O)(=O)c1ccc(NC(=O)CCC(=O)O)cc1" has what growth inhibition?
result: -20.4

query: Entry "OCc1nnn2c1CCC2" has what growth inhibition?
result: 0.05

query: Entry N#CCCSC(=S)C(C#N)C(=N)c1ccccc1 (stereo not drawn) has what growth inhibition?
result: 2.25

query: Entry "C=CCOC(=O)C(F)(F)F" has what growth inhibition?
result: -4.25

###

// values below are reported growth inhibition
Assay: NCI Yeast Anticancer Drug Screen. Data for the sgs1 mgt1 strain (AID 161);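 also: 0% = growth of cultures given vehicle only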
Details: S. cerevisiae sgs1 mgt1 strain, at 50.0 µM, hits give high values
Protocol: Growth inhibition of yeast strains with defined genetic alterations is measured as a screen for potential anti-cancer activity. Selected strains with alterations in DNA damage repair or cell cycle control were exposed to compounds and growth inhibition was measured relative to vehicle treated controls. The strain used in this assay is sgs1 mgt1
This is part of a sample that, as a whole, favours compounds with a hit. Of some 79,000 tested, about 15% had one in any assay.
Write down the numeric answer in % and omit the unit.

Study these solved cases before continuing.
O=c1nc(/C=C/c2ccccc2Cl)cc2n1CCN2CCO = -4.2
O=C(NC(=O)c1cccc(Cl)c1)Nc1ccccc1 = -19.6
NC(=O)c1[nH]c(N=Nc2ccc(S(N)(=O)=O)cc2)nc1N = 15

query: Entry Cc1ccc(S(=O)(=O)C(CC(=O)O)c2ccccc2)cc1 (configuration not stated) has what growth inhibition?
result: 6.15

query: Entry "NCc1c(C(N)=O)ncn1Cc1ccccc1" has what growth inhibition?
result: 5

query: Entry "COC(=O)/C(=C/c1ccccc1)N(C(C)=O)C(C)=O" has what growth inhibition?
result: 10.3

query: Entry CCCCCCCC(=O)OC(CC)CCCC (configuration not stated) has what growth inhibition?
result: 1.5

query: Entry "N#Cc1c(O)c(C=O)c(=O)n2c1[nH]c1ccccc12" has what growth inhibition?
result: -21.7

###

assay: NCI Yeast Anticancer Drug Screen. Data for the bub3 strain (AID 167); details: S. cerevisiae bub3 mutant strain, at 50.0 µM
The panel holds about 79,000 compounds, 15% with a hit somewhere; the sample as a whole holds those more often. The source made the active and inactive calls. No stated cut-off is given here; in the data, active means growth inhibition above about 70%; inactive means the rest.
Form entry, call: pick from label 1 = active, label 0 = inactive

COc1ccc(CC(NC(=O)OCc2ccccc2)C(=O)O)cc1 (stereo unspecified) = label 0
CC(=O)N/N=C/c1cccc([N+](=O)[O-])c1 = label 0
CC(NC(=O)CNC(=O)CN)C(N)=O (stereo unspecified) = label 0

query: Please indicate how the test categorized CCCCCCC1C=CC(CCCCCCCC(=O)O)C(/C=C/CCCCCCCC(=O)O)C1CCCCCC (stereo unspecified) .
result: label 0

query: Please indicate how the test categorized CN(C)CC(Cc1ccccc1)c1ccccc1 (stereo unspecified) .
result: label 0

query: Please indicate how the test categorized "Nc1nnnn1CCc1ccccc1" .
result: label 0

query: Please indicate how the test categorized "Nc1nc(C2CCCCC2)cs1" .
result: label 0

query: Please indicate how the test categorized "C(#Cc1ccccc1)SC1=C(c2ccccc2)S/C(=C(\SC#Cc2ccccc2)c2ccccc2)S1" .
result: label 0

query: Please indicate how the test categorized Cc1ccc(NC(=O)CC2SC(=Nc3cccc(Cl)c3C)NC2=O)cc1 (stereo unspecified) .
result: label 0

query: Please indicate how the test categorized "Cc1cc(Cc2ccc3c(c2)OCO3)ccc1OCC(=O)O" .
result: label 0
